These data points were gathered from ChEMBL document CHEMBL1126439.

Species: Rattus norvegicus
experiment_notes: tissue or blood
condition_notes: Hippocampus
Description: Effective concentration to stimulate PI (phospho inositol) metabolism in the rat hippocampal slices
reported_metric: EC50 (µM)

1. CC(=O)OC1CN2CCC1CC2 (stereo unspecified) : 21

====

Species on record: Rattus norvegicus
experiment_notes: Compound was evaluated for its ability to stimulate PI (phospho inositol) metabolism in the rat hippocampal slices, the 50% effective concentration was reported
Format: functional, organism-based
condition_notes: Hippocampus
reported_metric: EC50 (µM)

1. COC(=O)C1CN=CNC1.Cl (stereo unspecified) : 55

====

Species on record: Rattus norvegicus
experiment_notes: Ability to stimulate PI (phospho inositol) metabolism in rat cerebral cortex at 100 uM concentration
Type: functional
Reported values of Activity for individual entries
reported_metric: Activity

1. CC(C)OC(=O)C1CN=CNC1.Cl (stereo not drawn) : 7.2
2. C#CCOC(=O)C1CN=CNC1.Cl (stereo not drawn) : 230
3. C[N+](C)(C)CCOC(N)=O.[Cl-] : 580
4. CCOC(=O)C1CN=CNC1.Cl (stereo not drawn) : 150
5. Cl.O=C(OCc1ccccc1)C1CN=CNC1 (stereo not drawn) : 3.5
6. CCCOC(=O)C1CN=CNC1.Cl (stereo not drawn) : 7.1
7. CC(=O)OC1CN=CNC1.Cl (stereo not drawn) : 45
8. COC(=O)C1CN=CNC1.Cl (stereo not drawn) : 130
